Would you kindly list inhibition of aggregation for each of these molecules?
experiment: inhibitors of mutant huntingtin aggregation, primary screen, imaging, exon1htt(103Q)mCFP cells, high-content imaging (AID 483); settings: exon1htt(103Q)mCFP cell line, aggregate imaging, at 2 µM; stronger effect = higher value;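 also: compound exposure lasted 3 days before fixation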
Answer with a number only, understood to be in %.

Query C=CCOc1ccccc1/C=c1\sc2nc(=O)c(C)nn2c1=O yields inhibition of aggregation of 7.5

Query CCOC(=O)N1CCN(C(=O)COc2ccc(S(=O)(=O)NC(C)C)cc2)CC1 yields inhibition of aggregation of -5.3

Query COC(=O)c1c(NC(=O)CSc2nnc(-c3cccnc3)n2Cc2ccco2)sc(C)c1C yields inhibition of aggregation of 24

Query O=C(COC(=O)c1cc(-c2ccco2)nc2ccccc12)NCc1ccc2c(c1)OCO2 yields inhibition of aggregation of -7.7

Query COc1cc(S(=O)(=O)N(C)C)ccc1F yields inhibition of aggregation of 5.9

Query COCCNC(=O)c1cc(-c2cccs2)on1 yields inhibition of aggregation of -19.1

Query CCc1nnc(NC(=O)COC(=O)CN2C(=O)c3ccccc3C2=O)s1 yields inhibition of aggregation of 7.1

Query COc1cc(OC)c2c(c1)OC(c1ccc(OC)c(OC)c1)C(O)C2=O (stereo not drawn) yields inhibition of aggregation of -8.9

Query O=C(CSc1nnc(NC(=O)C2CCC2)s1)NC1CC1 yields inhibition of aggregation of -8.1

Query COc1cc(OC)cc(-c2nnc(SCC(=O)Nc3cc(C)on3)o2)c1 yields inhibition of aggregation of 32.6

Query CCOc1ccc(OCc2cccc(C(=O)N3CCCC3)c2)cc1 yields inhibition of aggregation of -4.9

Query CC(NC(=O)COc1ccc(Br)cc1)C(=O)O (stereo not drawn) yields inhibition of aggregation of 4.7

Query Cc1ccc(NC(=O)CSc2nnc(-c3ccccn3)n2C)cc1 yields inhibition of aggregation of 6.7

Query CCc1nnc(NC(=O)C2CCCN2S(=O)(=O)c2ccc(C)cc2)s1 (stereo not drawn) yields inhibition of aggregation of 24.1

Query CC(=O)c1ccc(NS(=O)(=O)c2ccccc2)cc1 yields inhibition of aggregation of 0.4

Query CS(=O)(=O)N(Cc1ccco1)CC(O)Cn1c2ccccc2c2ccccc21 (stereo not drawn) yields inhibition of aggregation of 3.9

Query CN(C)C(=O)c1ccc(COc2ccccc2Br)o1 yields inhibition of aggregation of 27.2

Query COc1ccc(C(O)C(CN2CCOCC2)c2ccccc2)cc1F (stereo not drawn) yields inhibition of aggregation of -2.1

Query O=C(CCS(=O)(=O)c1cc(Br)cc2c1N(C(=O)C1CC1)CC2)NCC1CCCO1 (stereo not drawn) yields inhibition of aggregation of -16.1

Query CC(=O)C1=C(C)NC(C)=C(C(C)=O)C1c1cccs1 yields inhibition of aggregation of -5.6

Query CCOc1ccc(-c2nnn(CCC(=O)O)n2)cc1OC yields inhibition of aggregation of 15.2

Query CC1Cc2nc(SCC(=O)Nc3ccc4c(c3)OCO4)n(-c3ccc(F)cc3)c(=O)c2S1 (stereo not drawn) yields inhibition of aggregation of -2.5

Query COc1cccc(CNC(=O)C2CCN(C(=O)N(C)C)CC2)c1 yields inhibition of aggregation of -46.5

----------
test: inhibitors of E-selectin induction by TNFa, primary screen, imaging, HUVEC, immunofluorescence, MLSMR starter and 10KST1 sets (AID 487); conditions: HUVEC TNFalpha-induced E-selectin immunofluorescence imaging, at 2 µM; measured here: cell number, toxicity;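 also: 100% = median nuclei count of all wells on the same plate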
observation_type: nuclei count (%)
Answer with a number only, understood to be in %.

Query COc1cccc(-c2nc(N3CCCCC3C)c3ccccc3n2)c1O (configuration not stated) yields nuclei count of 154

Query CCCOc1cccc(C(=O)N(Cc2ccco2)C2CCS(=O)(=O)C2)c1 (configuration not stated) yields nuclei count of 112

Query COc1cc(S(=O)(=O)N2CCN(c3ccc(F)cc3)CC2)ccc1Cl yields nuclei count of 124

Query CCOCCn1c(SCc2c(F)cccc2Cl)nc2c1c(=O)[nH]c(=O)n2C yields nuclei count of 114

Query COc1ccc(CCNC(=O)CCN2C(=O)C3CC=CCC3C2=O)cc1OC (configuration not stated) yields nuclei count of 103

Query CCOc1ccc(N2C(N)=NC(N)=NC2(C)C)cc1 yields nuclei count of 105

Query O=C(OCCN(CCOC(=O)c1ccncc1)S(=O)(=O)c1cccs1)c1ccncc1 yields nuclei count of 123

Query COc1ccc(-c2nc(CSCC(=O)N3CCc4ccccc4C3)c(C)o2)cc1OC yields nuclei count of 116

Query Cc1ccc(N2C(=O)CC(Cn3nc(C)cc3C)C2=O)cc1 (configuration not stated) yields nuclei count of 98.6

Query COc1ccccc1C1/C(=C(/O)c2ccc(C)cc2)C(=O)C(=O)N1CCN1CCOCC1 (configuration not stated) yields nuclei count of 133

Query O=C(c1cnc2n(c1=O)CCS2)N1CCc2ccccc21 yields nuclei count of 114

Query COc1ccc(CCn2c(C)cc(C(=O)CSc3nnnn3C)c2C)cc1 yields nuclei count of 110

Query CC(CCc1ccccc1)NC(=O)C1CCCN(c2nnc(-n3cccc3)s2)C1 (configuration not stated) yields nuclei count of 102

Query COc1ccc(OC)c(S(=O)(=O)N2CCC(C(=O)NCc3ccccc3OC)CC2)c1 yields nuclei count of 133

Query CCOc1ccc(S(=O)(=O)N(C)CCO)cc1-c1nc2c(C(C)(C)C)nn(C)c2c(=O)[nH]1 yields nuclei count of 165

Query Cc1ccc(-n2nnnc2SCC(=O)c2cc(C)n(-c3cc(C)on3)c2C)cc1 yields nuclei count of 106

Query Cc1ccc(C)c(NC(=O)CC(NCCCN2CCOCC2)C(=O)O)c1 (configuration not stated) yields nuclei count of 81.2

Query Cc1cc2ccccn2c1C(=O)c1ccncc1 yields nuclei count of 111

Query O=c1[nH]cnc2c1cnn2Cc1ccccc1 yields nuclei count of 145

Query O=C(CN(C(=O)CCC(=O)Nc1nccs1)c1ccccc1F)NCC1CCCO1 (configuration not stated) yields nuclei count of 124

Query CC(C)COc1ccc(C(=O)OCCN2CCOCC2)c(O)c1 yields nuclei count of 138

Query Cc1ccc(-c2nn(C)c(=O)c3ccccc23)cc1S(=O)(=O)NCCN1CCOCC1 yields nuclei count of 113

Query CCOc1ccc(OCc2cccc(C(=O)N3CCOCC3)c2)cc1 yields nuclei count of 117

Query CC(C)(C)C(=O)Cn1c[n+](N)cn1 yields nuclei count of 105

Query CC(=O)NCC(=O)OCN1C(=O)c2ccccc2C1=O yields nuclei count of 154

Query Cc1cc(C(=O)Nc2cccnc2)no1 yields nuclei count of 112

Query Clc1ccccc1CN(Cc1ccccc1)c1ncnc2nc[nH]c12 yields nuclei count of 93

Query COC(=O)c1cn(C(=O)c2ccc(Br)o2)c2ccccc12 yields nuclei count of 101

Query COc1ccc(OC)c(S(=O)(=O)NCCC2=CCCCC2)c1 yields nuclei count of 95

Query CCOC(=O)c1cc2c(=O)n3ccccc3nc2n(Cc2ccccc2)c1=N yields nuclei count of 117

Query Cc1ccc(-c2nc3ccccc3[nH]2)s1 yields nuclei count of 101

Query Cc1ccc(Cn2c(SCCN3CCCCC3)nc3c2c(=O)[nH]c(=O)n3C)cc1 yields nuclei count of 100

Query C=C(Cl)COC(=O)[C@H]1C2C=CC(C2)C1C(=O)O (some centres not stated) yields nuclei count of 124

Query CCCCOc1cc(=O)[nH]c(=O)[nH]1 yields nuclei count of 89.2

Query CCN(CC)c1ccc(C2Nc3cccc4cccc(c34)N2)c(O)c1 yields nuclei count of 134

Query COc1ccc(CCNc2oc(COc3ccc(F)cc3)nc2C#N)cc1 yields nuclei count of 74.8

Query O=C(O)C1[C@H]2C(=O)N(Cc3cccs3)C[C@]23C=C[C@H]1O3 (some centres not stated) yields nuclei count of 189

Query CCc1ccccc1NC(=O)CSc1ncn[nH]1 yields nuclei count of 102

Query C=CCOc1ccccc1/C=c1\sc2nc(=O)c(C)nn2c1=O yields nuclei count of 106

Query COC(=O)CSc1nc2c(c(=O)n(C)c(=O)n2C)n1CCC(C)C yields nuclei count of 130

Query c1ccc(CNc2ncnc3ccccc23)cc1 yields nuclei count of 107

Query Cn1ncc2nc[nH]c(=O)c21 yields nuclei count of 110

Query COc1cc2[nH]c(=O)c(C(=O)NCCCN3CCCCC3)c(O)c2cc1OC yields nuclei count of 108

Query CCCCOCP(=O)(CCCC)COCCCC yields nuclei count of 100

Query Cc1cc(OCC(=O)NCCO)cc(C)c1Cl yields nuclei count of 92.3

Query Cc1ccc(-n2nnnc2SCC(=O)Nc2c(C)n(C)n(-c3ccccc3)c2=O)cc1 yields nuclei count of 106

Query c1coc(CN(Cc2cccs2)Cc2nnnn2C2CCCCC2)c1 yields nuclei count of 97.7

----------
molecular target: Alpha-2C adrenergic receptor (Homo sapiens) (UniProt P18825); experiment: modulators of alpha2C/GIRK thallium flux, primary screen, cell-based, HEK293 alpha2C/GIRK1/2 (AID 624); settings: thallium flux BTC fluorescence, at 10 µM, actives lie on both sides;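 also: slope of fluorescence ratio to pre-addition baseline per second over 15 to 24 s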
Sequence (P18825 whole entry, looked up): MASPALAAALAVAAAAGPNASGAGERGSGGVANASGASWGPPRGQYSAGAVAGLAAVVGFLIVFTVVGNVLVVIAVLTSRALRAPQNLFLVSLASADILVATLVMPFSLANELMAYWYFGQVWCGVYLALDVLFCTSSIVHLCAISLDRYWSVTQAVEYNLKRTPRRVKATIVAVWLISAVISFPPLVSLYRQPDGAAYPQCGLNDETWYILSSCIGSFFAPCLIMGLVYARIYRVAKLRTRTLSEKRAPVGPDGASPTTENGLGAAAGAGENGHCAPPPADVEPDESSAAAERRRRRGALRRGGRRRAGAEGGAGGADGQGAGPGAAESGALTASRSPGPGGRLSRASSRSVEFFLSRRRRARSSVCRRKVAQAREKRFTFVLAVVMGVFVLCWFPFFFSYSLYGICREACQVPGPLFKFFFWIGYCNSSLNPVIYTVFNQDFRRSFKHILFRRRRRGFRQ
// not satisfied strictly below 0.004 in slope; satisfied otherwise

Q) For this compound, is measured slope 0.004 or higher? CCOc1ccccc1NC(=O)CCSc1nc2n[nH]c(C)c2c(=N)n1-c1ccccc1Cl
A) not satisfied

Q) For this compound, is measured slope 0.004 or higher? Cc1ccc(S(=O)(=O)Cc2ccc(C(=O)N3CCN(Cc4ccccc4)CC3)o2)cc1
A) satisfied

Q) For this compound, is measured slope 0.004 or higher? CCOc1cccc(OCCCCn2ccnc2)c1
A) satisfied

Q) For this compound, is measured slope 0.004 or higher? COC(=O)c1ccccc1NC(=O)C1CC(=O)N(c2ccc(F)cc2)C1 (stereo unspecified)
A) not satisfied

Q) For this compound, is measured slope 0.004 or higher? CCc1nnc(NC(=O)c2cc3ccccc3oc2=O)s1
A) satisfied

Q) For this compound, is measured slope 0.004 or higher? Cc1nc2ccc(S(=O)(=O)NCC(=O)N3CCc4ccccc4C3)cc2s1
A) satisfied

Q) For this compound, is measured slope 0.004 or higher? COc1cc(OC)c(NC(=O)c2ccco2)cc1Cl
A) not satisfied

Q) For this compound, is measured slope 0.004 or higher? CC1=C(C(=O)NC2CCC(C)CC2)C2(CCC(C)CC2)OC1=O (stereo unspecified)
A) satisfied

Q) For this compound, is measured slope 0.004 or higher? CCCNC(=O)c1ccccc1NC(=O)CN(c1ccccc1OCC)S(C)(=O)=O
A) not satisfied
